- measurement-description: basal S. cerevisiae growth modulation, no modifier, primary screen, OD600, strain BY4716, 24 h, basal condition (AID 1173)
- measurement-context: OD600, 24 h, higher = more signal, called active from +8 up or from −8 down
observed-property: z-score

compound=CO[C@@H]1COC(=O)CC=C[C@@H](C)[C@@H]2C=C[C@H](O)[C@@H](COC(=O)CCC[C@H]1C)O2 observed_property=z-score observed_result=-1.19
compound="COC(=O)CC1OC1[C@H](C)[C@@H](OC)C(C)C (stereo not given in full)" observed_property=z-score observed_result=-4.59
compound=COc1cccc([C@@H]2Oc3ccc(Br)cc3C(=O)[C@H]2O)c1 observed_property=z-score observed_result=-14.5
compound=COCCOC(=O)N1C(=O)[C@@]2(c3cc(C#CC4(O)CCCCCC4)ccc31)[C@H](c1ccc(OCCO)cc1)N1[C@H](c3ccccc3)[C@H](c3ccccc3)OC(=O)[C@H]1[C@@H]2C(=O)NC[C@H](O)c1ccccc1 observed_property=z-score observed_result=0.685
compound="Cc1ccc(C2CC=C(C(=O)O)CN2S(=O)(=O)c2ccc(C)cc2)cc1 (stereo not given)" observed_property=z-score observed_result=-0.0489
compound="CC(CCN1CCc2nc(-c3ccccc3)c(-c3ccccc3)cc2C1)=NOC(C)CN1CCCCc2nc(C)c(C)cc21 (stereo not given)" observed_property=z-score observed_result=-2.52
compound=COC(=O)[C@@H]1CCCN1C(=O)[C@@H](C)CO observed_property=z-score observed_result=-1.06
compound=O=C(NN=C1C[C@@H](O)[C@@H](O)[C@@H]2[C@@H]3C(=O)N(c4cccc(Oc5ccccc5)c4)C(=O)[C@@H]3CC[C@H]12)OCc1ccccc1 observed_property=z-score observed_result=-0.841
compound="CCCCCN1CC=CC23O[C@@H]4C=CCOC(=O)[C@@H]4[C@H]2C(=O)N(C(CO)C(C)C)[C@@H]3C1=O (stereo not given in full)" observed_property=z-score observed_result=1.02
compound=O=C1C[C@@H](O)[C@@H](O)[C@@H]2[C@@H]3C(=O)N(c4ccc(F)cc4F)C(=O)[C@@H]3CC[C@@H]12 observed_property=z-score observed_result=0.461
compound=CC(C)=C1C(=O)C(c2ccccc2)=C2CN3C(=O)N(CCc4ccccc4)C(=O)[C@]3(Cc3ccc(F)cc3)[C@H]21 observed_property=z-score observed_result=0.255
compound=CCCC[C@@H]1C[C@H]1[C@@H](NS(=O)(=O)c1cccc2cccnc12)c1ccc(-c2ccccc2)cc1 observed_property=z-score observed_result=0.444
compound="CCOc1ccc(N2C(=O)/C(=C/C=C/c3ccccc3OC)S(=O)(=O)C2c2cccc([N+](=O)[O-])c2)cc1 (stereo not given)" observed_property=z-score observed_result=-1.52
compound=C[C@@H](c1ccccc1)N1C(=O)[C@H]2[C@H]3[C@H](O)[C@H](O)CC(=NOC[C@@H](O)COCc4ccco4)[C@@H]3CC[C@H]2C1=O observed_property=z-score observed_result=0.984
compound="O=C1CCCC=C1C(O)CCOCc1ccccc1 (stereo not given)" observed_property=z-score observed_result=-1.76
compound=CC(C)[C@H](NC(=O)OC(C)(C)C)[C@@H](O)CC(=O)OC(C)(C)C observed_property=z-score observed_result=-0.448
compound=COc1ccc(COC(=O)NN=C2C[C@@H](O)[C@@H](O)[C@@H]3[C@@H]4C(=O)N(Cc5ccc6c(c5)OCO6)C(=O)[C@@H]4CC[C@@H]23)cc1 observed_property=z-score observed_result=-0.839
compound=COCCOC(=O)N1C(=O)[C@@]2(c3cc(C#Cc4ccc(OC)cc4)ccc31)[C@H](c1ccc(O)cc1)N1[C@H](c3ccccc3)[C@H](c3ccccc3)OC(=O)[C@H]1[C@@H]2C(N)=O observed_property=z-score observed_result=-0.306
compound="COc1cccc([C@H]2Oc3ccc(OC)cc3C(=NOC(C)CN3CCCc4nc(C)c(C)cc43)[C@@H]2O)c1 (stereo not given in full)" observed_property=z-score observed_result=-0.872
compound="CCc1cc2c(nc1CC)CCN(CCC(C)=NOC(C)CN1CCCc3nc(C)c(C)cc31)C2 (stereo not given)" observed_property=z-score observed_result=-0.822
compound=CCOC(=O)CCN1C(=O)[C@H]2[C@H]3[C@H](O)[C@H](O)CC(=NNC(=O)OCc4ccc(OC)cc4)[C@@H]3CC[C@H]2C1=O observed_property=z-score observed_result=0.458
compound=CN(C)C(=O)[C@@]1(Cc2ccccc2)N=C(c2ccc(OCCCO)cc2)O[C@H]1c1ccccc1CN=[N+]=[N-] observed_property=z-score observed_result=-0.618
compound=CC(C)[C@@H](OCc1ccccc1)[C@H](C)C=NO[C@H](C)c1cn([C@H](CO)Cc2ccccc2)nn1 observed_property=z-score observed_result=-3.51
compound=CC(C)=CCCC(C)=CCON=C1C[C@@H](O)[C@@H](O)[C@@H]2[C@@H]3C(=O)N(C[C@@H]4CCCO4)C(=O)[C@@H]3CC[C@@H]12 observed_property=z-score observed_result=-0.242
compound=Cc1ccc(S[C@]2(C(=O)NCC(F)(F)F)CC(=O)N(Cc3ccccc3Cl)[C@@H]2c2ccc(CO)cc2I)cc1 observed_property=z-score observed_result=-3.36
compound=O=C1C2=CC[C@H]3C(=O)N(Cc4ccc5c(c4)OCO5)C(=O)[C@H]3[C@H]2[C@H](O)[C@@H]2O[C@H]12 observed_property=z-score observed_result=-0.105
compound=O=C1[C@H]2[C@H]3[C@H](O)[C@H](O)CC(=NOCc4ccccc4)[C@@H]3CC[C@H]2C(=O)N1Cc1ccccc1 observed_property=z-score observed_result=-0.148
compound=Cc1cc(C)c(-c2cc([C@H](C)ON=C3[C@H]4CCn5c(=O)n(-c6ccccc6)c(=O)n5[C@H]4[C@H](O)[C@@H]4O[C@H]34)on2)c(C)c1 observed_property=z-score observed_result=-0.752
compound=C[C@@H](c1ccccc1)N1C(=O)[C@H]2[C@H]3[C@H](O)[C@H](O)CC(=NNC(=O)OCc4ccccc4)[C@H]3CC[C@H]2C1=O observed_property=z-score observed_result=0.976
compound=CC(=O)OC[C@H]1O[C@H](C#CCCCc2ccccc2)C=C[C@@H]1OC(C)=O observed_property=z-score observed_result=-2.31

====

# Lookup of reported z-score keyed by entry
- measurement-description: S. cerevisiae growth modulation with rapamycin, primary screen, strain BY4716, OD600, 96 h (AID 1091); note: test concentration not given here
- measurement-context: higher = more signal, called active from +8 up or from −8 down
Activity calls are given as the source filed them.
observed-property: z-score

compound=COC(=O)[C@@H]1N=C(c2ccc(OCCCO)cc2)O[C@@H]1c1ccccc1N=[N+]=[N-] observed_property=z-score observed_result="-1.15 (inactive)"
compound=COc1ccccc1CN1C(=O)c2ccccc2[C@@H](C(=O)NCC(F)(F)F)[C@@H]1c1ccc(CO)cc1 observed_property=z-score observed_result="-0.296 (inactive)"
compound=COC(=O)C1=C(C)N(Cc2ccccc2)[C@]23O[C@](C(=O)OC)(C(=O)N2[C@@H]1c1ccccc1)[C@H]1CCOC(=O)[C@H]13 observed_property=z-score observed_result="1.71 (inactive)"
compound=CC(C)NC(=O)[C@@H]1c2ccccc2C(=O)N(CC23CC4CC(CC(C4)C2)C3)[C@H]1c1ccc(CO)cc1 observed_property=z-score observed_result="-0.241 (inactive)"
compound=CC(C)[C@@H](OCc1ccccc1)[C@H](C)C=NOC[C@@H](C)[C@H](OCc1ccccc1)C(C)C observed_property=z-score observed_result="0.338 (inactive)"
compound=COCCCNC(=O)[C@@]1(CCS(=O)(=O)c2ccccc2)N=C(c2ccc(OCCCO)cc2)O[C@H]1c1ccccc1 observed_property=z-score observed_result="-0.757 (inactive)"
compound=O=C1[C@H]2[C@H]3[C@H](O)[C@H](O)CC(=NOCc4ccccc4)[C@@H]3CC[C@H]2C(=O)N1Cc1ccccc1 observed_property=z-score observed_result="-1.41 (inactive)"
compound=C=C(CCCC)C(=O)CC[C@@H](OC(C)=O)c1cccc(OCCO)c1 observed_property=z-score observed_result="-3.92 (inactive)"
compound="COC(=O)[C@H](C)NC(=O)CCC1CC(OC(=O)NCCc2ccc(F)cc2)CC2(CCCC(COC(=O)NCCc3ccc(Cl)cc3)O2)O1 (stereo not given in full)" observed_property=z-score observed_result="1.2 (inactive)"
compound=CO[C@H]1COC(=O)[C@H](C)COC(=O)CC=C[C@@H](C)[C@H](OC)COC(=O)CC=C[C@@H]1C observed_property=z-score observed_result="-0.147 (inactive)"
compound=COCCOC(=O)N1C(=O)[C@@]2(c3cc(C#CC4(O)CCCCCC4)ccc31)[C@H](c1ccc(OCCO)cc1)N1[C@H](c3ccccc3)[C@H](c3ccccc3)OC(=O)[C@H]1[C@@H]2C(=O)NC[C@H](O)c1ccccc1 observed_property=z-score observed_result="6.86 (inactive)"
compound=COCCCNC(=O)[C@@]1(C)c2ccccc2C(=O)N(Cc2ccc(OC(F)(F)F)cc2)[C@H]1c1ccc(CO)cc1 observed_property=z-score observed_result="-0.35 (inactive)"
compound="CCOC(=O)[C@H](Cc1ccccc1)NC(=O)CCC1CC(OC(=O)NCc2ccc3c(c2)OCO3)CC2(CCCC(COC(=O)NCC(c3ccccc3)c3ccccc3)O2)O1 (stereo not given in full)" observed_property=z-score observed_result="0.687 (inactive)"
compound=COCCOC(=O)N1C(=O)[C@@]2(c3cc(C#CCNC(N)=O)ccc31)[C@H](c1ccccc1OCCO)N1[C@H](c3ccccc3)[C@H](c3ccccc3)OC(=O)[C@H]1[C@@H]2C(=O)N1CCN(c2ncccn2)CC1 observed_property=z-score observed_result="3.85 (inactive)"
compound=O=C(NN=C1C[C@@H](O)[C@@H](O)[C@@H]2[C@@H]3C(=O)N(c4cccc(Oc5ccccc5)c4)C(=O)[C@@H]3CC[C@@H]12)OCc1ccccc1 observed_property=z-score observed_result="0.281 (inactive)"
compound=C#CCCCON=C1C[C@@H](O)[C@@H](O)[C@@H]2[C@@H]3C(=O)N([C@@H](C)c4ccccc4)C(=O)[C@@H]3CC[C@H]12 observed_property=z-score observed_result="-0.418 (inactive)"
compound="CN1C(=O)C2C=CC(C(O)C(c3ccccc3)c3ccccc3)N(NC(=O)OC(C)(C)C)C2C1=O (stereo not given)" observed_property=z-score observed_result="-0.512 (inactive)"
compound=C[C@H]1CC[C@@H](C(=O)O)N[C@@H]1c1ccc(C#CCN(C)C)cc1 observed_property=z-score observed_result="-0.434 (inactive)"
compound=Cc1ccc(S[C@]2(C(=O)O)CC(=O)N(Cc3ccccc3)[C@@H]2c2ccc(CO)cc2I)cc1 observed_property=z-score observed_result="1.29 (inactive)"
compound="N#Cc1ccc(NN2C(C(O)c3cccc4ccccc34)C=CC3C(=O)N(c4ccccc4)C(=O)C32)cc1 (stereo not given)" observed_property=z-score observed_result="1.75 (inactive)"
compound=[N-]=[N+]=NCc1ccccc1C[C@]1(C(=O)NCc2ccccc2)N=C(c2ccc(OCCCO)cc2)O[C@H]1c1ccccc1N=[N+]=[N-] observed_property=z-score observed_result="6.01 (inactive)"
compound=CC(C)C[C@@H]1NC(=O)[C@H]2C[C@@H](C(=O)O)[C@@H](c3ccc(O)cc3)N2C1=O observed_property=z-score observed_result="1.83 (inactive)"
compound="CC(CCN1CCCCc2nc(C)c(C)cc21)=NOC(C)CN1CCCCc2nc(C)c(C)cc21 (stereo not given)" observed_property=z-score observed_result="0.187 (inactive)"
compound=CC(C)=NOCc1cccc(-c2cc(-c3ccccc3)no2)c1 observed_property=z-score observed_result="-0.442 (inactive)"
compound=COc1ccc(-c2nc3c(c4c2C[C@H](C)OC4)CN(CCC(C)C)CC3)cc1 observed_property=z-score observed_result="0.0635 (inactive)"
compound="COc1ccc(-c2ccc3c(n2)CCCN3CC(O)CN2CCCc3nc(C)c(C)cc32)cc1 (stereo not given)" observed_property=z-score observed_result="-1.43 (inactive)"
compound=C=C(/C(=C/C[C@@H](OC(=O)c1ccncc1)c1ccc(OCCO)cc1)c1cnc2ccccc2c1)C(C)C observed_property=z-score observed_result="-4.32 (inactive)"
compound=O=C1C[C@]2(c3ccc([N+](=O)[O-])cc3)C(=O)N(CCN3CCOCC3)c3cc(CO)ccc3[C@H]2N1CC12CC3CC(CC(C3)C1)C2 observed_property=z-score observed_result="-2.77 (inactive)"
compound=CCCCC(=C=CC[C@H](O)c1ccccc1OCCO)C[C@H](O)COCc1ccccc1 observed_property=z-score observed_result="-0.659 (inactive)"
compound=NC(=O)NCC#Cc1ccc2c(c1)[C@]1(C(=O)N2)[C@H](c2ccc(O)cc2)N2[C@H](c3ccccc3)[C@H](c3ccccc3)OC(=O)[C@H]2[C@@H]1C(=O)N1CCCCCCC1 observed_property=z-score observed_result="1.24 (inactive)"
